Biological target: T1, 4H486-AA
T1 chain: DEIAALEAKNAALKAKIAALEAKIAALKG
Assay: two-hybrid library CCmax;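 note: natural log of median RNA to DNA barcode read ratio; higher means stronger binding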
Details: mean of both orientations
endpoint: interaction score
Lab note: record just the number, no unit beside it.

Worked examples follow.
>  <binder>
DENAALEAEIAALKAENAALEAKIAALKG [4H1110-AA]

>  <interaction score>
1.93

$$$$
>  <binder>
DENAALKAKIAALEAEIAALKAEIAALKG [4H1802-AA]

>  <interaction score>
-1.28

$$$$

Per the record, DKNAALEAKIAALEAKIAALEAKIAALEG [4H3365-AA] has interaction score of -1.2

Per the record, DEIAALEAKNAALKAENAALEAEIAALEG [4H465-AA] has interaction score of -1.47
